Data origin, for the record: PubChem BioAssay (NCI)

Test system: A549/ATCC NSCLC
assay.info: NCI-60 one-dose screen, 48 h (100 = growth as untreated, 0 = no growth, -100 = all killed)
condition.parameters: 10 µM
About 83,000 compounds went through this panel and 20% of them were active in at least one assay; those are over-represented in the sample as a whole.
attribute.measured: growth (%)
Express it in %; write the number only.

Sample answers from the record:
COc1ccccc1[C@H]1C(C(=O)c2ccc(Cl)cc2)C2(N[C@@H]1c1ccccc1)C(=O)Nc1ccccc12 (stereo partly drawn)
9.22
CCOC(=O)N/C(=C1/OCCN1C)[P+](c1ccccc1)(c1ccccc1)c1ccccc1
89
CC1(C)[C@@H](NCO)CC[C@]2(C)[C@H]3C(=O)C=C4[C@@H]5C[C@](C)(CO)CC[C@]5(C)CC[C@@]4(C)[C@]3(C)CC[C@@H]12
60
O=C(c1ccc([N+](=O)[O-])c([N+](=O)[O-])c1O)n1[nH]c(=O)c2ccccc2c1=O
77.6
CN1CCN(c2ccc(Nc3nc(NCCCNC(=O)c4ccccc4)c4sccc4n3)cc2)CC1
72.5

(Q) // lookup growth for "O=C1Nc2ccc(Cl)cc2/C1=C/c1cccc(OCc2ccccn2)c1"
(A) 40.1

(Q) // lookup growth for "N#Cc1c(NC(=O)c2ccc(C(O)(C(F)(F)F)C(F)(F)F)cc2)sc2c1CCC(=O)C2"
(A) 9.39

(Q) // lookup growth for "COc1cc2c3c(n(CCCn4ccnc4)c(=O)c2cc1OC)-c1nc2c(cc1C3=O)OCO2"
(A) 47.7

----------
System: U251 CNS
assay.info: NCI-60 one-dose screen, 48 h (100 = growth as untreated, 0 = no growth, -100 = all killed)
condition.parameters: 10 µM
About 83,000 compounds went through this panel and 20% of them were active in at least one assay; those are over-represented in the sample as a whole.
Please note: growth exactly at 40% is Not fulfilled. Only values below 40% get Fulfilled.

Record excerpt, results attached:
COC[C@@H](CC(C)C)N=C1N/C(=C\c2ccc3ncsc3c2)C(=O)N1C
Fulfilled
O=C(Nc1cccc([N+](=O)[O-])c1)Nc1cccc([N+](=O)[O-])c1
Not fulfilled
O=S(=O)(Nc1ncccn1)c1ccc(-n2c(-c3ccccc3)nc(-c3ccccc3)c2-c2ccccc2)cc1
Not fulfilled

(Q) Threshold test, growth < 40%: "C=C(c1ccc(OC)c(N)c1)c1cc(C)nc2ccccc12"
(A) Fulfilled

(Q) Threshold test, growth < 40%: "O=C(CSc1nnc(-c2ccc3nc(-c4ccccc4)[nH]c3c2)o1)Nc1ccc(Br)cc1"
(A) Fulfilled

(Q) Threshold test, growth < 40%: "CC(=O)c1cc(C(=O)c2ccc3c(c2)NC(=O)CO3)n2ccc3ccccc3c12"
(A) Fulfilled

(Q) Threshold test, growth < 40%: "COc1ccc2cc([C@H](C)C(=O)NCc3ccccc3)ccc2c1"
(A) Fulfilled

(Q) Threshold test, growth < 40%: "COc1ccc(CN2[C@H](C(=O)NCc3ccc(C(=O)NO)cc3)Cc3c([nH]c4ccccc34)[C@H]2C2CC2)cc1"
(A) Not fulfilled

----------
System: HCT-116 colon
assay.info: NCI-60 one-dose screen, 48 h
condition.parameters: 10 µM
Method: Growth inhibition of the HCT-116 human tumor cell line is measured as a screen for anti-cancer activity. Cells are grown in 96 well plates and exposed to the test compound for 48 hours. Compounds are tested at a single concentration, which is 10^-5 M for most compounds. The reported endpoint is percent growth (GI% or GIPRCNT), where numbers from 0 - 100% represent growth inhibition, and numbers from -100% - 0 represent cell death. For example, a value of 40 represents 60% growth inhibition. […]
This is part of a sample that, as a whole, favours compounds with a hit. Of some 83,000 tested, about 20% had one in any assay. Activity calls are given as the source filed them. How the source made its calls: active means growth percent below 10; inactive means the rest.
Respond with a class label; see active, inactive

Record excerpt, results attached:
N#Cc1ccc(-c2nn(-c3ccc(C(=O)O)cc3)cc2CNc2ccc(Cl)cc2)cc1
inactive
CCCn1c(=O)c2[nH]c(-c3ccc(OCc4nc5ccc(C#N)cc5[nH]4)cc3)nc2n(CCC)c1=O
inactive
CC(C)CCSc1nc(NC2CC2)c(C#N)c(-c2ccc(C(C)C)cc2)n1
inactive
Cc1ccc2nc(COc3ccc(C(=O)NNC(=S)NCCc4ccccc4)cc3)[nH]c2c1
inactive
C=C[C@@]12CN3CC[C@]1(O)[C@@](C(=O)OC)(CO2)c1[nH]c2ccccc2c1C3
inactive
N#Cc1c(Cl)nc(SCc2ccc(F)cc2)nc1-c1ccc(F)cc1
inactive
O=C1Nc2ccc(Cl)cc2/C1=C/c1cccc(OCc2ccccc2)c1
inactive
N#Cc1ccc(-c2nn(-c3ccc(C(=O)O)cc3)cc2CNc2cccc(Br)c2)cc1
inactive
CC1(C)CC[C@]23CC[C@]4(C)[C@H](CC[C@@H]5[C@@]6(C)CC[C@H](N)C(C)(C)[C@@H]6CC[C@]54C)[C@H]2[C@H]1OC3=O
active
Cn1cc(/C=N/Nc2cccc(Cl)n2)c2ccccc21
inactive

(Q) Recorded call for "COc1ccc(NC(=O)CSc2nnc(-c3ccc4nc(-c5ccc(Cl)cc5)[nH]c4c3)o2)cc1" ?
(A) inactive

(Q) Recorded call for "O=c1c2ccccc2nc(COc2ccccc2)n1/N=C/c1ccc(N2CCOCC2)cc1" ?
(A) inactive

(Q) Recorded call for "O=C1Nc2cc(-c3ccc(NC(=O)c4cccs4)cc3)ccc2/C1=C/c1ccc[nH]1" ?
(A) inactive

(Q) Recorded call for "O/N=C(\CSc1nnc(-c2c[nH]c3ccccc23)n1-c1ccccc1)c1ccc(Br)cc1" ?
(A) active
